The reported numbers originate from BigSolDB 2.1.

settings: in water, 318.2 K
experimental-readout: solubility (mole fraction)
Just the number.

Input line: Requested field: solubility (mole fraction). Item: CC(C)=CCOc1c2ccoc2cc2oc(=O)ccc12
Output line: 1.68e-06

====

details: in water, 313.2 K
experimental-readout: solubility (mole fraction)

Input line: # query: solubility (mole fraction) of entry CC(C)=CCOc1c2ccoc2cc2oc(=O)ccc12
Output line: 1.29e-06

====

details: in ethanol, 293.2 K
experimental-readout: solubility (mole fraction)
Could you respond with only the numeric value?

Input line: What value of measured solubility (mole fraction) is listed for CC(C)=CCOc1c2ccoc2cc2oc(=O)ccc12 ?
Output line: 0.00377

====

conditions: in ethanol, 298.2 K
experimental-readout: solubility (mole fraction)
Give the value as a plain number.

Input line: Please give the measured solubility (mole fraction) for this compound: CC(C)=CCOc1c2ccoc2cc2oc(=O)ccc12
Output line: 0.00531

====

settings: in water, 308.2 K
experimental-readout: solubility (mole fraction)
API note: the answer field is a bare number with no unit suffix.

Input line: What value of solubility (mole fraction) has been reported for the following compound? CC(C)=CCOc1c2ccoc2cc2oc(=O)ccc12
Output line: 1.16e-06

====

conditions: in ethanol, 318.2 K
experimental-readout: solubility (mole fraction)
Number only, no unit.

Input line: Which solubility (mole fraction) reading was recorded for the compound CC(C)=CCOc1c2ccoc2cc2oc(=O)ccc12 ?
Output line: 0.0178

====

conditions: in water, 293.2 K
experimental-readout: solubility (mole fraction)
Quick one: just the number, no unit, thanks!

Input line: What does the data say about its solubility (mole fraction)? Entry: CC(C)=CCOc1c2ccoc2cc2oc(=O)ccc12
Output line: 7.42e-07

====

conditions: in ethanol, 303.2 K
experimental-readout: solubility (mole fraction)
Number only, no unit.

Input line: # input molecule: CC(C)=CCOc1c2ccoc2cc2oc(=O)ccc12 ; wanted: its solubility (mole fraction)
Output line: 0.00733
